- protocol-description: Cytotoxicity against African green monkey Vero cells incubated for 72 hrs by MTT assay
- Type: cell-based
- experimental-setup: chlorocebus sabaeus
measurement-name: CC50 at 72 h (µg/mL)
The figure you give is taken to be in µg/mL; do not add the unit.

Task: Which CC50 at 72 h reading was recorded for the compound CC(C)=CCc1c(O)cc2oc(-c3ccc(O)cc3O)c(CC=C(C)C)c(=O)c2c1O [CUDRAFLAVONE C] ?
Result: 50

====

- Tested on: Pseudomonas aeruginosa
- protocol-description: Antibacterial activity against Pseudomonas aeruginosa ATCC 27853 assessed as bacterial growth inhibition incubated for 16 to 18 hrs by broth microdilution method
- Type: functional
- experimental-setup: time 16-18 hrs
measurement-name: MIC

Task: Which MIC reading was recorded for the compound Oc1cc(O)cc(/C=C/c2ccc(O)cc2O)c1 ?
Result: > 64 µg/mL

Task: Which MIC reading was recorded for the compound CC(C)=CC1Oc2cc(O)ccc2-c2oc3cc4c(c(O)c3c(=O)c21)C=CC(C)(C)O4 (stereo not given) ?
Result: > 64 µg/mL

Task: Which MIC reading was recorded for the compound C[C@H]1COc2c(N3CCN(C)CC3)c(F)cc3c(=O)c(C(=O)O)cn1c23.C[C@H]1COc2c(N3CCN(C)CC3)c(F)cc3c(=O)c(C(=O)O)cn1c23.O ?
Result: 0.5 µg/mL

Task: Which MIC reading was recorded for the compound COc1cc2oc3c(c(=O)c2c(O)c1/C=C/C(C)C)C(C=C(C)C)Oc1cc(O)ccc1-3 (stereo not given) ?
Result: > 64 µg/mL

Task: Which MIC reading was recorded for the compound CC(C)=CCc1c(O)cc2oc(-c3ccc(O)cc3O)c(CC=C(C)C)c(=O)c2c1O ?
Result: > 64 µg/mL

All values here come from ChEMBL document CHEMBL4840338.
